Biological target: T1, human PAR-2 (human, UniProt P55085 26-397)
T1 sequence: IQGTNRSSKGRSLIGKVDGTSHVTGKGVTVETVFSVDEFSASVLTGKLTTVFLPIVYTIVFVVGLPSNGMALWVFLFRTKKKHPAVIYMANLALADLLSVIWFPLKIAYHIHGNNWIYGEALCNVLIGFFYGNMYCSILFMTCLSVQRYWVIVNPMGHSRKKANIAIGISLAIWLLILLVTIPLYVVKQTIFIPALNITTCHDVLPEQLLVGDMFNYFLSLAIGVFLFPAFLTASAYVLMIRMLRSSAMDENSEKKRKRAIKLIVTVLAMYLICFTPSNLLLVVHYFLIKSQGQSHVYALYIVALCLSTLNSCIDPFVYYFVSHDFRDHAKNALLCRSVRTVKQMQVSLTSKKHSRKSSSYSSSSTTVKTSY
Experiment: cell-based or functional assay
QUANTITY KIND: PAR-2 β-arrestin cell based assay IC50, 1 µM SLIGKV (nM)
Supply the numeric figure in nM, leaving out any unit text.

// solved cases for PAR-2 β-arrestin cell based assay IC50, 1 µM SLIGKV follow
BINDER	NUMERIC RESULT
P24E186 (antibody, human IgG4 S228P, kappa, V domains shown) VH: QVQLVQSGAEVKKPGSSVKVSCKASGFSLNSYGVIWVRQAPGQGLEWMGVIWGNGNTYYNQKFQGRVTITADESTSTAYMELSSLRSEDTAVYYCARWRGWKDYPFDYWGQGTLVTVSS VL: EIVLTQSPATLSLSPGERATLSCKASQNIYKYLDWYQQKPGQAPRLLIYNTNSLHTGIPARFSGSGSGRDFTLTISSLEPEDFAVYYCLQHNSGWTFGGGTKVEIKR	3.25
P24E60 (antibody, human IgG4 S228P, kappa, V domains shown) VH: QVQLVQSGAEVKKPGSSVKVSCKASGFSLNSYGVIWVRQAPGQGLEWMGVIWGNGNTYYNQKFQGRVTITADESTSTAYMELSSLRSEDTAVYYCARWRGYKDYPFDYWGQGTLVTVSS VL: EIVLTQSPATLSLSPGERATLSCKASQNIYKWLDWYQQKPGQAPRLLIYNTNSLHTGIPARFSGSGSGRDFTLTISSLEPEDFAVYYCLQHNSGWTFGGGTKVEIKR	2.03
P24E61 (antibody, human IgG4 S228P, kappa, V domains shown) VH: QVQLVQSGAEVKKPGSSVKVSCKASGFSLNSYGVIWVRQAPGQGLEWMGVIWGNGNTYYNQKFQGRVTITADESTSTAYMELSSLRSEDTAVYYCARWRGYKDYPFDYWGQGTLVTVSS VL: EIVLTQSPATLSLSPGERATLSCKASQNIYKFLDWYQQKPGQAPRLLIYNTNSLHTGIPARFSGSGSGRDFTLTISSLEPEDFAVYYCLQHNSGWTFGGGTKVEIKR	2.56
P24E40 (antibody, human IgG4 S228P, kappa, V domains shown) VH: QVQLVQSGAEVKKPGSSVKVSCKASGFSLNSYGVIWVRQAPGQGLEWMGVIWGNGNTYYNQKFQGRVTITADESTSTAYMELSSLRSEDTAVYYCARWRGYKDYPFDYWGQGTLVTVSS VL: EIVLTQSPATLSLSPGERATLSCKASQNIYKYLDWYQQKPGQAPRLLIYNTNSLATGIPARFSGSGSGRDFTLTISSLEPEDFAVYYCLQHNSGWTFGGGTKVEIKR	2.47
P24E41 (antibody, human IgG4 S228P, kappa, V domains shown) VH: QVQLVQSGAEVKKPGSSVKVSCKASGFSLNSYGVIWVRQAPGQGLEWMGVIWGNGNTYYNQKFQGRVTITADESTSTAYMELSSLRSEDTAVYYCARWRGYKDYPFDYWGQGTLVTVSS VL: EIVLTQSPATLSLSPGERATLSCKASQNIYKYLDWYQQKPGQAPRLLIYDASNRATGIPARFSGSGSGRDFTLTISSLEPEDFAVYYCLQHNSGWTFGGGTKVEIKR	26.9

// next item, PAR-2 β-arrestin cell based assay IC50, 1 µM SLIGKV requested
Return the recorded PAR-2 β-arrestin cell based assay IC50, 1 µM SLIGKV value; entry: P24E233 (antibody, human IgG4 S228P, kappa, V domains shown) VH: QVQLVQSGAEVKKPGSSVKVSCKASGFSLNSYGVIWVRQAPGQGLEWMGVIWGNGNTYYYQKFQGRVTITADESTSTAYMELSSLRSEDTAVYYCARWRGYKDYPFDYWGQGTLVTVSS VL: EIVLTQSPATLSLSPGERATLSCKASQNIYKYLDWYQQKPGQAPRLLIYNTNSLHTGIPARFSGSGSGRDFTLTISSLEPEDFAVYYCLQHNSGWTFGGGTKVEIKR
1.77

Source: patent US20220056125A1
